The reported numbers originate from patent US20120083522A1.

For each of the substances below, state its Inhibition of Factor XI protein relative to the PBS control.
tested on: Factor XI protein; test: Cynomolgus monkeys: plasma Factor XI protein ELISA (Example 29); assay type: in vivo; settings: escalating doses 5, 10, 25 mg/kg s.c., day 78
In the oligonucleotide strings, read from the 5' end, every base follows the letter of its sugar. An asterisk marks phosphorothioate; unmarked linkages are phosphodiester. Other units and linkages are bracketed, terminal groups are in braces. A string of capitals states the bases alone. e = 2'-O-(2-methoxyethyl) (MOE); [5mC] = 5-methylcytosine; d = 2'-deoxy (DNA)
Just the number in %, nothing appended.

Fill in the blank: the reported Inhibition of Factor XI protein relative to the PBS control of ISIS 417002: gapmer of Table 8 (antisense eG*eG*dT*dG*d[5mC]*dA*d[5mC]*dA*dG*dT*dT*dT*d[5mC]*dT*dG*eG*e[5mC]*eA*eG*eG) is ____. 22

Fill in the blank: the reported Inhibition of Factor XI protein relative to the PBS control of ISIS 416858: gapmer of Table 8 (antisense eA*e[5mC]*eG*eG*e[5mC]*dA*dT*dT*dG*dG*dT*dG*d[5mC]*dA*d[5mC]*eA*eG*eT*eT*eT) is ____. 73

Fill in the blank: the reported Inhibition of Factor XI protein relative to the PBS control of ISIS 416838: gapmer of Table 6 (antisense eG*e[5mC]*eA*eA*e[5mC]*d[5mC]*dG*dG*dG*dA*dT*dG*dA*dT*dG*eA*eG*eT*eG*e[5mC]) is ____. 10

Fill in the blank: the reported Inhibition of Factor XI protein relative to the PBS control of ISIS 416864: gapmer of Table 8 (antisense eG*eG*e[5mC]*eA*eG*d[5mC]*dG*dG*dA*d[5mC]*dG*dG*d[5mC]*dA*dT*eT*eG*eG*eT*eG) is ____. 9

Fill in the blank: the reported Inhibition of Factor XI protein relative to the PBS control of ISIS 416850: gapmer of Table 8 (antisense eT*eG*e[5mC]*eA*e[5mC]*dA*dG*dT*dT*dT*d[5mC]*dT*dG*dG*d[5mC]*eA*eG*eG*e[5mC]*e[5mC]) is ____. 63
